# system: Human IL-17AF (Homo sapiens, UniProt Q16552+Q96PD4)
# Sequence (Q16552 24-155): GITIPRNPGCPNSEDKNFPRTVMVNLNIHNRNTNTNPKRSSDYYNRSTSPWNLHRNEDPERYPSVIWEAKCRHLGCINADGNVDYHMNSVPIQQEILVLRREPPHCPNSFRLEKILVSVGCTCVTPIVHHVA
# Sequence (Q96PD4 31-163): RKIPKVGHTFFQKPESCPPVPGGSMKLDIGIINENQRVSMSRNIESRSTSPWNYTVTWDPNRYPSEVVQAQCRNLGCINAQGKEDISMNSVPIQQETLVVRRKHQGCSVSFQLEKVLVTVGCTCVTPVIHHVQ
# testProtocol: IL-17AF ELISA (competitive ELISA, IL-17AF/IL-17Ra receptor-ligand binding)
# experimentalSetup: human IL-17AF coated plate, human IL-17Ra, read-out: IC50, inhibitory activity of compounds on human IL-17AF
pIC50: −log10 of the molar value.
Examples of compounds with documented pIC50 follow.

compound	pIC50
Cc1[nH]nc2c1-c1cc(F)c(NC(=O)[C@@H](NC(=O)c3ccnn3C(C)C)C(C3CC3)C3CC3)cc1CN(C1CCC(F)(F)CC1)C(=O)C2	6.30 to 7.00
CCn1nccc1C(=O)N[C@H](C(=O)Nc1cc2c(cc1F)-c1c(n[nH]c1C)CC(=O)N(C)C2)C(C1CC1)C1CC1	6.30 to 7.00
Cc1[nH]nc2c1-c1cnc(NC(=O)[C@@H](NC(=O)/C(F)=C\C(C)C)C(C3CC3)C3CC3)cc1COCC2	6.30 to 7.00
Cc1[nH]nc2c1-c1cc(F)c(NC(=O)[C@@H](NC(=O)c3ccnn3C(C)C)C(C3CC3)C3CC3)cc1CN(C(C)C(F)(F)F)C(=O)C2 (mixture of isomers) [compound 173]	6.30 to 7.00
Cc1[nH]nc2c1-c1cc(F)c(NC(=O)[C@@H](NC(=O)c3ccnn3CCC(F)F)C(C3CC3)C3CC3)cc1COCC2	≥ 7.00
Cc1[nH]nc2c1-c1ccc(NC(=O)[C@@H](NC(=O)c3ccnn3C(C)C)C(C3CC3)C3CC3)cc1CNC(=O)C2	6.30 to 7.00
Cc1[nH]nc2c1-c1cc(F)c(NC(=O)[C@@H](NC(=O)c3ccnn3CCC(O)C(F)(F)F)C(C3CC3)C3CC3)cc1COCC2 (some centres unmarked)	≥ 7.00
CCc1nocc1C(=O)N[C@H](C(=O)Nc1cc2c(cc1F)-c1c(n[nH]c1C)CCOC2)C(C1CC1)C1CC1	≥ 7.00
Cc1[nH]nc2c1-c1cc(F)c(NC(=O)[C@@H](NC(=O)c3ccnn3C(C)C)C(C3CC3)C3CC3)cc1CN(CC(F)F)C(=O)C2	6.30 to 7.00
Cc1[nH]nc2c1-c1cc(F)c(NC(=O)[C@@H](NC(=O)c3ccnn3C(C)C)C3CCCCC3)cc1COCC2	6.30 to 7.00
Cc1[nH]nc2c1-c1cc(F)c(NC(=O)[C@@H](NC(=O)c3ccnn3C(C)C)C(C3CC3)C3CC3)cc1CN(C1CC(F)(F)C1)CC2	≥ 7.00
Cc1[nH]nc2c1-c1cc(F)c(NC(=O)[C@@H](NC(=O)c3conc3C(C)C)C(C3CC3)C3CC3)cc1COCC2	6.30 to 7.00
Cc1[nH]nc2c1-c1cc(F)c(NC(=O)[C@@H](NC(=O)c3ccnn3CCOC3CC3)C(C3CC3)C3CC3)cc1COCC2	6.30 to 7.00
Cc1[nH]nc2c1-c1cc(F)c(NC(=O)[C@@H](NC(=O)c3ccnn3C(C)CF)C(C3CC3)C3CC3)cc1COCC2 (single isomer, unassigned) [compound 42b]	≥ 7.00
